In this section, each of the molecules is paired with its reported log10 EC50.
# system.tested: hGPR40 (Homo sapiens)
# Sequence (O14842 whole entry): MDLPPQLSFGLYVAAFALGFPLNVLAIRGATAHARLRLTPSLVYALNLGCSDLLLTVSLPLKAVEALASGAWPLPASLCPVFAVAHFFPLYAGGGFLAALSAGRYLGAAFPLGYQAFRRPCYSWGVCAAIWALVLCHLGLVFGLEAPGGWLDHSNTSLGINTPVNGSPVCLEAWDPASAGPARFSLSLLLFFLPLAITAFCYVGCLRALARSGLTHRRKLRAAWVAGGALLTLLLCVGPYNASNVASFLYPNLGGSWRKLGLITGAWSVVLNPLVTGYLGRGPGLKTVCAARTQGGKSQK
# assay.text: FDSS-based intracellular calcium assay in cell lines expressing GPR40
# Set-up: 3xFLAG; expressed in transfected cells
# setup.conditions: intracellular Ca2+ response, cells expressing GPR40, FDSS reader
Counter-ions that a name gives are not always drawn.
Each number you see is log10 of EC50, and the unit inside the log is nM.

Solved cases below.
- COCCCO[C@H]1CN(c2ccc(OC3CCN(c4cc(OC)ncc4Cl)CC3C)c(F)c2)[C@@H](CC(=O)O)[C@@H]1C (single isomer, unassigned) [Example 7]: 1.99
- COCCCO[C@H]1CN(c2ccc(OC3CCN(c4cc(OC)ncc4Cl)CC3CC(C)C)cc2)[C@@H](CC(=O)O)[C@@H]1C (single isomer, unassigned) [Example 19, Isomer 1]: 3.18
- COCCCO[C@H]1CN(c2cnc(O[C@@H]3CCN(c4cc(OC)ncc4Cl)C[C@H]3C)nc2)[C@@H](CC(=O)O)[C@@H]1C [Example 33]: 2.00
- COCCCO[C@H]1CN(c2ccc(O[C@@H]3CCN(c4cc(OC)ncc4Cl)C[C@H]3C)cc2)[C@@H](CC(=O)O)[C@@H]1C (single isomer, unassigned) [Example 1]: 1.75
- COCCCO[C@H]1CN(c2cnc(OC3CCN(c4cc(OC)ncc4Cl)CC3C)c(F)c2)[C@@H](CC(=O)O)[C@@H]1C (single isomer, unassigned) [Example 22]: 1.95

Consider the additional molecule presented here.
Recorded log10 EC50 of COCCCO[C@H]1CN(c2ccc(OC3CCN(c4cc(OC)ncc4Cl)CC3C)nc2)[C@@H](CC(=O)O)[C@@H]1C (stereo partly drawn) [Example 2, HCl] , please.
2.26

---

Structures can show the parent of a compound that is named as a salt.
Recorded below: EC50, system UniProtKB O14842.
# number only, unit nM dropped from output

* COCCCO[C@H]1CN(c2ccc(OC3CCN(c4cc(OC)ncc4Cl)CC3)cc2)[C@@H](CC(=O)O)[C@@H]1C | 13
* CCOc1ccc(F)c(N2CCC(Oc3ccc(N4C[C@H](CCCOC)C[C@@H]4CC(=O)O)cc3)CC2)c1 [Example 10, TFA] | 47
* COCCCO[C@H]1CN(c2ccc(OC3CCN(c4cc(OC)ncc4Cl)CC3)nc2)[C@@H](CC(=O)O)[C@@H]1C | 19
* COCCCO[C@H]1CN(c2ccc(O[C@@H]3CCN(c4cc(OC)ncc4Cl)C[C@H]3C)cc2)[C@@H](CC(=O)O)[C@@H]1C (single isomer, unassigned) | 5
* CCOc1ccc(F)c(N2CCC(Oc3ccc(N4C[C@H](OCCCOC)[C@@H](C)[C@@H]4CC(=O)O)cn3)C(C)C2)c1 (single isomer, unassigned) [Example 9, HCl] | 35

Which EC50 is reported with UniProtKB O14842 for this entry: CCOc1ccc(F)c(N2CCC(Oc3ccc(N4C[C@H](OCCCOC)[C@@H](C)[C@@H]4CC(=O)O)cc3)C(C)C2)c1 (single isomer, unassigned) [Example 14, HCl] ?
7

Then COCCCO[C@H]1CN(c2ccc(OC3CCN(c4cc(OC)ncc4Cl)CC3C)nc2)[C@@H](CC(=O)O)[C@@H]1C (stereo partly shown) [Example 2, HCl] ?
27

---

# system.tested: hGPR40 (Homo sapiens)
# assay.text: FDSS-based intracellular calcium assay in cell lines expressing GPR40
# Design: 3xFLAG; expressed in transfected cells
# setup.conditions: intracellular Ca2+ response, cells expressing GPR40, FDSS reader
In this section, each of the molecules is paired with its reported EC50.
# number only, unit nM dropped from output

Recorded EC50 of COCCCO[C@H]1CN(c2cnc(OC3CCN(c4cc(OC)ncc4Cl)CC3)c(C(F)(F)F)c2)[C@@H](CC(=O)O)[C@@H]1C , please.
61

Then COCCCO[C@H]1CN(c2ccc(OC3CCN(c4cc(OC)ncc4Cl)CC3C)cc2F)[C@@H](CC(=O)O)[C@@H]1C (single isomer, unassigned) ?
110

Then COCCCO[C@H]1CN(c2cnc(OC3CCN(c4cc(OC)ncc4Cl)CC3C)c(C(F)(F)F)c2)[C@@H](CC(=O)O)[C@@H]1C (single isomer, unassigned) ?
65

Sourced from patent US10717725B2
